assay: yeast display, Sf9 membrane polyspecificity reagent, FACS + sequencing; frameworks hold sequencing errors
MEASURED_ATTRIBUTE: polyreactivity (PSR sort gate)

Sample answers from the record:
>>> observed("QVQLVESGGGLVQAGGSLRLSCAASGRIFPTNAMGWYRQAPGKERVFVAAITWGGGSTYYAVSVKGRFTISRDNAKNTVYLQMNSLKPEDTAVYYCAATGHIVFFRSYDYGYWGQGTQVTVSS")
"low polyreactivity"
>>> observed("QVQLLESGGGLVQAGRSLCLSCAASGSIIINAMGWYRQAPGKERELVATIRWRGGTTYYADSVKGRFTISRDNAKNTVYLQRNSLKPEDTAVYYCAADRSYYPDPRTTYGYNYWGQGTQVTVSS")
"low polyreactivity"
>>> observed("QVQLVESGGGLVQAGGSLSLSCSASGRTLYFYAMGWYRQAPGKERELVAAIRWRGGSTYYADSVKGRFTISRDNAKNTVYLQMNSLKPEDTAVYYCAADVPSGYDYWGQGTQVTVSS")
"high polyreactivity"
>>> observed("QVQLVESGGGLVQAGGSLRLSCAASGFTFAHNAMGWYRQAPGKERELVAAITRSGGSTYYADSVKGRFTISRDNAKNTVYLQMNSLKPEDTAVYYCNAGRRGSGYGYWGQGTQVTVSS")
"high polyreactivity"

We now examine a further sequence.
polyreactivity (PSR sort gate) recorded for this sequence, QVQLVESGGGLVQAGGSLRLSCAASGSTFFDNAMGWYRQAPGKERELVAAISWSGARTYYADSVKGRFTISRDNAKNTVYLQMNSLKPEDTAVYYCAARFYVSNSRKSARNYWGQGTQVTVSS , is high polyreactivity

###

experiment: yeast display, Sf9 membrane polyspecificity reagent, FACS + sequencing; frameworks hold sequencing errors
MEASURED_ATTRIBUTE: polyreactivity (PSR sort gate)

Sample answers from the record:
>>> observed("QVQLVESGGRLVQAGGSLRLSCAASGSTFYRNAMGWYRQAPGKERELVASINNGGSTYYADSVKGRFTISRDNAKNTVYLQMNSLKPEDTAVYYCAATESWDYDYWGQGTQVTVSS")
"low polyreactivity"
>>> observed("QVHLVDSRGVLVQAGGSLRLSCAASGRTFFHYAMGWYRQAPGKERELVAAITYRGTSTYYADSVKARFTISRDYAKNTVYLQMNSLKPEATAVYYCNAYTTRGGWSYRGDSWGQGTQVTVSS")
"high polyreactivity"
>>> observed("QVQLVESGGGLVQAGGSLRLSCAASGFTFPGNAMGWYRQAPGKERELVAAISRSGAGTYYADSVKGRFTISRDNAKNTDYLQMNRLKPEDTAVYYCNAVYSSWDYHYRYGYWGQGTQVTVSS")
"high polyreactivity"
>>> observed("QVQLVESGGGLVQAGGSLRLSCVASGFIFRRNAMGWYRQAPGKERELVATISSGGNTYYADSVKGRFTISRDNAKNTVYLQMNSLKPVDTAVYYCIASDGLPSKLNVYVEFDYWGQCTQVTVSS")
"low polyreactivity"
>>> observed("QVQLVESGGGLVQAGGSLRLSCAASGIIVPNAMGWYRQAPGKERELVAVITSGGSTYYADSVKGRFTISRDNAKNTVSLQMNSLKPEDTAVYYCNKDYAAIDRYDSWGQGTQVTVSS")
"low polyreactivity"

polyreactivity (PSR sort gate) recorded for this sequence, QVQLVESGGGLVQAGGSLRLSCAAYGNIFYVYVMGWYRQAPGKERELVASITSGASTYYADSVKGRFTISRDNAKNTVYLQMNSLKPEDTAVYYCAAEALGGAGDYSTLYIYDYWGQGTQVTVSS , is low polyreactivity

polyreactivity (PSR sort gate) recorded for this sequence, QVQLVESGGGLVQAGGSLRLSCAASGSIFYAYAMGWYRQAPGKERELVATISSVGSTYYADSVKGRFTISRDNAKNTVYLQMNSLKPEDTAVYYCAKQRIVVYKTGYDYWGQGTQVTVSS , is low polyreactivity

polyreactivity (PSR sort gate) recorded for this sequence, KVQVVESGGGLVQAGGSLRLSCAASGRIFGVYAMGWYRQAPGKERELVAAINYSGTRTYYADSVKGRFTISRDNAKNTVYLQMNSLKPEDSAVYYCAARRGSYSVTEYWGQGTQVTVSS , is high polyreactivity
